# method: Selectivity ratio of IC50 for african green monkey Vero cells to IC50 for human HeLa cells
# Format: ADME, cell-based
# reportedConditions: Vero cells versus HeLa cells, read-out: Ratio IC50
Collected selectivity ratio values appear next to each entry.
Respond using a number only.

// below: answered compounds
INSERT INTO assay_data (givensmiles, assaymetric, observedvalue) VALUES
  ('COC(=O)[C@]1(C)CCC[C@]2(C)c3ccc(C(C)C)c(O)c3CC[C@@H]12', 'selectivity ratio', 1.9),
  ('CC(C)c1ccc2c(c1O)CC[C@H]1[C@](C)(C(=O)O)CCC[C@]21C', 'selectivity ratio', 0.77),
  ('CC(C)c1ccc2c(c1O)CC[C@H]1[C@](C)(CO)CCC[C@]21C', 'selectivity ratio', 0.71),
  ('CC(C)C1=CC(=O)C2=C(CC[C@H]3[C@](C)(C(=O)O)CCC[C@]23C)C1=O', 'selectivity ratio', 4.74),
  ('CC(C)C1=CC(=O)C2=C(CC[C@H]3[C@](C)(CO)CCC[C@]23C)C1=O', 'selectivity ratio', 1);

# ---- query compound ----
What does the data say about its selectivity ratio? Entry: COC(=O)[C@]1(C)CCC[C@]2(C)C3=C(CC[C@@H]12)C(=O)C(C(C)C)=CC3=O
1.23

----------
# System: Jurkat
# method: Cytotoxicity against human Jurkat cells after 48 hrs by MTT assay
# Format: functional, cell-based
assayMetric: inhibition

// below: answered compounds
INSERT INTO assay_data (givensmiles, observedvalue) VALUES
  ('CC(C)C1=CC(=O)C2=C(CC[C@H]3[C@](C)(C(=O)O)CCC[C@]23C)C1=O', 'Dose-dependent effect'),
  ('CC(C)C1=CC(=O)C2=C(CC[C@H]3[C@](C)(CO)CCC[C@]23C)C1=O', 'Dose-dependent effect'),
  ('CC(C)c1ccc2c(c1O)CC[C@H]1[C@](C)(C(=O)O)CCC[C@]21C', 'Dose-dependent effect'),
  ('CC(C)c1ccc2c(c1O)CC[C@H]1[C@](C)(CO)CCC[C@]21C', 'Dose-dependent effect'),
  ('COC(=O)[C@]1(C)CCC[C@]2(C)C3=C(CC[C@@H]12)C(=O)C(C(C)C)=CC3=O', 'Dose-dependent effect');

# ---- query compound ----
What does the data say about its inhibition? Entry: COC(=O)[C@]1(C)CCC[C@]2(C)c3ccc(C(C)C)c(O)c3CC[C@@H]12
Dose-dependent effect
